Every entry's value here was drawn from PubChem BioAssay (NCI).

test: NCI Yeast Anticancer Drug Screen. Data for the sgs1 mgt1 strain (AID 161);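 also: 0% = growth of cultures given vehicle only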; settings: S. cerevisiae sgs1 mgt1 strain, at 50.0 µM, hits give high values
Compounds without any hit were thinned out: in the full panel of roughly 79,000, 15% have a hit.
We begin with a simple list: items and their reported growth inhibition.
# unit: % | format: bare number

Study these solved cases before continuing.
O=C(O)CC1CCCNC1 (stereo unspecified): -13.7
O=C1CSC(c2cccc([N+](=O)[O-])c2)N1c1ccc(-n2c(-c3ccccc3)nc3ccccc3c2=O)cc1 (stereo unspecified): 11.9
Cc1nc2ccccc2nc1CCO: -3.85
CC(C)(C)C1=NNC(c2ccccc2)C1 (stereo unspecified): -14.7
COc1ccc2oc(=O)c(CC=C(C)C)c(O)c2c1C: -1.65

Exam item: Item under review: O=C(/C=C/c1ccccc1)SCc1ccccc1 . Reported growth inhibition?
Marked response: 11.2

Exam item: Try this molecule next: COC(=O)/C(=N/NC(C)(C)C)C(C(=O)C=C(C)C)C(=O)C(=O)Nc1ccc(Cl)cc1C (stereo unspecified)
Marked response: -11.2

Exam item: Follow-up item: Nc1ccccc1S(=O)O
Marked response: 14.9

Exam item: Next molecule up: CCCCCCCCCCCCCCCC(=O)O (tested in a mixture with another compound)
Marked response: -18.2

Exam item: // same read-out, input: COc1ccc(C(=O)CCN(C)C)cc1
Marked response: -7.65
